Provenance of the data: patent US20240287079A1

- target-desc: UniProtKB Q96P20
- assay-details: Evaluation of NLRP3 inflammasome inhibitory activity (inhibition of IL-1β production in LPS/Nigericin-stimulated THP1-Null cells)
- Assay type: cell-based
- study-conditions: IL-1β production in THP1-Null cells; test compound 0.0024 μM
Item-by-item account of inhibition at 0.0024 µM

{"molecular-string": "Cc1cc(C2CC2)cc(Cl)c1-n1cc2c(=O)[nH]c(N3CCOCC3)nc2n1", "target-desc": "UniProtKB Q96P20", "unit-string": "%", "inhibition at 0.0024 µM": 54}
{"molecular-string": "Cc1cc(C(F)(F)F)cc(C)c1-n1cc2c(=O)[nH]c(N3CCOC[C@H]3C)nc2n1", "target-desc": "UniProtKB Q96P20", "unit-string": "%", "inhibition at 0.0024 µM": 65}
{"molecular-string": "CCNc1nc2nn(-c3c(C)cc(Br)cc3C)cc2c(=O)[nH]1", "target-desc": "UniProtKB Q96P20", "unit-string": "%", "inhibition at 0.0024 µM": 52}
{"molecular-string": "Cc1cc(Br)cc(C)c1-n1cc2c(=O)[nH]c(NC3CC3)nc2n1", "target-desc": "UniProtKB Q96P20", "unit-string": "%", "inhibition at 0.0024 µM": 60}

---

- target-desc: NLRP3 inflammasome (Homo sapiens (Human))
- assay-details: Evaluation of NLRP3 inflammasome inhibitory activity (inhibition of IL-1β production in LPS/Nigericin-stimulated THP1-Null cells)
- study-conditions: IL-1β production in THP1-Null cells, PMA, LPS 1 μg/mL, Nigericin 7.5 μmol/L, AlphaLISA
pIC50: −log10 of the molar value.
Item-by-item account of pIC50

{"compound": "Cc1ccccc1-n1cc2c(=O)[nH]c(N3CCC3(C)C)nc2n1 [Example 39]", "pIC50": 5.15}
{"compound": "Cc1cc(C2CC2)cc(C)c1-n1cc2c(=O)[nH]c(N3C[C@H]4C[C@@H]3CO4)nc2n1 [Example 209]", "pIC50": 8.29}
{"compound": "Cc1cc(C2CC2)ccc1-n1cc2c(=O)[nH]c(N3CCOCC3)nc2n1 [Example 242]", "pIC50": 7.62}
{"compound": "O=c1[nH]c(N2CC(CCO)C2)nc2nn(-c3ccc(C(F)(F)F)cc3Cl)cc12 [Example 180]", "pIC50": 7.46}
{"compound": "Cc1ccc(-n2nc3nc(N4CCCC4)[nH]c(=O)c3c2C)c(C)c1 [Example 55]", "pIC50": 6.64}
{"compound": "Cc1cc(Br)cc(C)c1-n1cc2c(=O)[nH]c(NC3CCCN(C)C3)nc2n1 (racemic) [Example 245]", "pIC50": 8.10}
{"compound": "Cc1cc(OC(F)F)cc(C)c1-n1cc2c(=O)[nH]c(N3CCOCCO3)nc2n1 [Example 352]", "pIC50": 7.17}
{"compound": "Cc1cc(Cl)cc(C(C)C)c1-n1cc2c(=O)[nH]c(N3CCOCC3)nc2n1 (racemic) [Example 188]", "pIC50": 7.05}

---

- target-desc: NLRP3 inflammasome (Homo sapiens (Human), UniProt Q96P20)
- Sequence (Q96P20 whole entry): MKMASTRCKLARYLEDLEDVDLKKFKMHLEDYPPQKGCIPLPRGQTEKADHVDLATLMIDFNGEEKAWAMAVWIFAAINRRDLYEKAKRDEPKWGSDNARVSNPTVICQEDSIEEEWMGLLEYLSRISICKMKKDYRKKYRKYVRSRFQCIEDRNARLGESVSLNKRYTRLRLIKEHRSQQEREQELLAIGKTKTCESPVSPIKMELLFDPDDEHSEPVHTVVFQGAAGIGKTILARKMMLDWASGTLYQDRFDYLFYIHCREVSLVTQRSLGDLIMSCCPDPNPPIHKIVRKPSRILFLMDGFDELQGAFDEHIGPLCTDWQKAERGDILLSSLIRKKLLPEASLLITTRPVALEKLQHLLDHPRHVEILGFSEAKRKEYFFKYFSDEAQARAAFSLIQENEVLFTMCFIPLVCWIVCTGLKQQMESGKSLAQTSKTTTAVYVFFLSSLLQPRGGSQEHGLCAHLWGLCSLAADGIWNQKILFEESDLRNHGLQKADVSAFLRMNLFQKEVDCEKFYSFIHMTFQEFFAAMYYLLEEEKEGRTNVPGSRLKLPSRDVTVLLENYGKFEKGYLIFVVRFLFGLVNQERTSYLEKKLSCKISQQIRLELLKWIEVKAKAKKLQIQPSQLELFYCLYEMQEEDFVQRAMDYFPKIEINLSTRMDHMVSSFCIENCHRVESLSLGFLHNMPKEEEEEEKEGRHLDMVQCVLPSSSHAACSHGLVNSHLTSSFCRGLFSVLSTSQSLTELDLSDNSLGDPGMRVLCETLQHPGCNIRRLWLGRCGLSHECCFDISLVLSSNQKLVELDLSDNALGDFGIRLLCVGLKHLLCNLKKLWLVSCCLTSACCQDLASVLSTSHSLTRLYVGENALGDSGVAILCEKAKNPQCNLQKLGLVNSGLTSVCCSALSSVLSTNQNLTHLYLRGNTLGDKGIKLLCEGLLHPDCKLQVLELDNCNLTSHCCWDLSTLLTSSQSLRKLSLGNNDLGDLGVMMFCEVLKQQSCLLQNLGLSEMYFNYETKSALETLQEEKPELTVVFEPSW
- assay-details: Evaluation of NLRP3 inflammasome inhibitory activity (inhibition of IL-1β production in LPS/Nigericin-stimulated THP1-Null cells)
- study-conditions: IL-1β production in THP1-Null cells, PMA, LPS 1 μg/mL, Nigericin 7.5 μmol/L, AlphaLISA
Param label: returns Criterion met when IC50 < 0.03 µM, returns Criterion not met otherwise, including exact equality.

{"molecule": "O=c1[nH]c(N2CCOCC2)nc2nn(-c3ccc(C4CC4)cc3CC3CC3)cc12", "class-name": "Criterion met"}
{"molecule": "Cc1cc(C)c(-n2cc3c(=O)[nH]c(N4CCCOCC4)nc3n2)c(C)c1", "class-name": "Criterion met"}
{"molecule": "Cc1cc(Br)cc(C)c1-n1cc2c(=O)[nH]c(N3CC4CC(C3)O4)nc2n1", "class-name": "Criterion met"}
{"molecule": "Cc1ccc(-n2cc3c(=O)[nH]c(N4CCOCC4)nc3n2)c(C)c1 [Example 58]", "class-name": "Criterion not met"}
{"molecule": "Cc1cc(C2=CCCCC2)ccc1-n1cc2c(=O)[nH]c(N3CCCC3)nc2n1", "class-name": "Criterion not met"}
{"molecule": "Cc1ccccc1-n1cc2c(=O)[nH]c(N3CCC(C)(O)C3)nc2n1 (racemic)", "class-name": "Criterion not met"}
{"molecule": "O=c1[nH]c(N2CCCC2)nc2nn(-c3ccccc3OC(F)(F)F)cc12", "class-name": "Criterion not met"}
{"molecule": "Cc1cc(Br)ccc1-n1cc2c(=O)[nH]c(N3CC4CC3CO4)nc2n1 (racemic)", "class-name": "Criterion met"}
